Tested on: HT29 colon
Assay: NCI tumour cell line growth inhibition, 48 h; in the data active means GI50 below about 0.43 µM; inactive means the rest
Select the correct class. Options are active, inactive and nothing else.

Some solved cases for reference:
{"Compound": "COc1c(Cl)[c]([Hg][O]C(C)=O)c(NCC(C)=O)c(OC)[c]1[Hg][O]C(C)=O", "Label class": "inactive"}
{"Compound": "C=C1C(=O)O[C@H]2[C@H]1CC/C(Cn1cc(-c3ccsc3)nn1)=C\\CC[C@@]1(C)O[C@@H]21", "Label class": "inactive"}

Query: Any idea what this test logged for Cc1ccc2c(c1)-c1oc(=O)c(-c3cc4ccccc4oc3=O)cc1C(O)O2 (stereo not drawn) ?
Reply: inactive

Query: Any idea what this test logged for O=c1c(-c2nc3ccccc3[nH]2)cc2ccccc2n1Cc1cn(Cc2ccccc2Cl)nn1 ?
Reply: inactive

Query: Any idea what this test logged for COc1c(N2CCN(CN3C(=O)C(=O)c4ccccc43)C(C)C2)c(F)cc2c(=O)c(C(=O)O)cn(C3CC3)c12 (stereo not drawn) ?
Reply: inactive

Query: Any idea what this test logged for CN1CCN(Cc2ccc(NC(=O)c3cccc(C#Cc4c(N)ncc5ccc(F)cc45)c3)cc2C(F)(F)F)CC1 ?
Reply: active

Query: Any idea what this test logged for CC(=Nc1ccccc1)C1=C(O)C(Cc2ccc(F)cc2)NC1=O (stereo not drawn) ?
Reply: active

Query: Any idea what this test logged for COC(=O)[C@H](Cc1cn(C)cn1)NC(=O)[C@@H](NC(=O)Nc1cc(C(F)(F)F)cc(C(F)(F)F)c1)C(C)(C)C ?
Reply: inactive
